# assayProcedure: yeast NALP1 reporter signal suppression – S. cerevisiae, luminescence, single concentration, NALP1 inhibitor project, confirmation (AID 488841);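 also: plate controls were DMSO in galactose medium for no effect and cells in plain SD medium for full effect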
# experimentalConditions: S. cerevisiae NALP1/ASC/Caspase-1 reporter, beta-gal luminescence; at 10 µM
About 380 (27%) of roughly 1,400 compounds were called active.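 The calls were made as follows: active = mean inhibition above 50% across duplicate retests at 10 µM; inactive = the rest.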 This is one part of the list.
Just give me one of these, please: active, inactive

Known results for molecules:
[
  {
    "molecule": "OC(CN1CCN(Cc2ccccc2)CC1)Cn1c2ccccc2c2ccccc21 (configuration not stated)",
    "classification": "active"
  },
  {
    "molecule": "O=C(Nc1cccc(-c2cn3ccccc3n2)c1)c1cccc(Cl)c1",
    "classification": "inactive"
  },
  {
    "molecule": "O=C(CSc1nc(-c2ccccc2)cs1)Nc1cccc([N+](=O)[O-])c1",
    "classification": "inactive"
  },
  {
    "molecule": "COC(=O)c1ccc(Oc2ccc(S(=O)(=O)N3CCCCC3)cc2N)cc1",
    "classification": "active"
  },
  {
    "molecule": "CCN(CC)CCCOc1ccc(Cl)c(Cl)c1",
    "classification": "inactive"
  },
  {
    "molecule": "CC(C)c1ccc(-c2c(C#N)c(N)nc3c2CCCCC3)cc1",
    "classification": "inactive"
  }
]

Here's the next entry for you.
# input GET /call?item= N#Cc1ccc(NC(=O)Nc2ccc(Cl)cc2)cc1 returns the recorded outcome of this test.
# output active

----------
# assayProcedure: yeast NALP1 reporter signal suppression – S. cerevisiae, luminescence, single concentration, NALP1 inhibitor project, confirmation (AID 488841);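 also: plate controls were DMSO in galactose medium for no effect and cells in plain SD medium for full effect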
# experimentalConditions: S. cerevisiae NALP1/ASC/Caspase-1 reporter, beta-gal luminescence; at 10 µM; stronger effect = higher value
Out of some 1,400 compounds screened, about 380 (27%) were called active. The list shows a part of the results.
valueKind: inhibition (%)
Please reply with the bare figure in % and do not write the unit itself.

[
  {
    "compound": "Cc1ccc(S(=O)(=O)NCC(=O)N(CC(=O)NC(C)(C)C)Cc2cccs2)cc1",
    "inhibition / %": 31.3
  },
  {
    "compound": "O=C(CCNc1n[nH]c(=O)[nH]c1=O)N/N=C/c1ccc(C(F)(F)F)cc1",
    "inhibition / %": 26.9
  },
  {
    "compound": "Cc1sc2nc(SCC(=O)NCc3ccco3)n(Cc3ccccc3)c(=O)c2c1C",
    "inhibition / %": 24.6
  }
]

# input Identify measured inhibition associated with O=C(CCN1CCc2ccccc2C(c2ccccc2)C1)c1ccc2c(c1)OCCO2 (stereo unspecified)
# output 30

# input Return value of inhibition for input CCc1cccc(OCCN2CCCC2)c1 , no commentary.
# output 29.9

----------
# inhibition annotations
# assayProcedure: yeast NALP1 reporter signal suppression – S. cerevisiae, luminescence, single concentration, NALP1 inhibitor project, confirmation (AID 488841);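 also: plate controls were DMSO in galactose medium for no effect and cells in plain SD medium for full effect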
# experimentalConditions: S. cerevisiae NALP1/ASC/Caspase-1 reporter, beta-gal luminescence; at 10 µM; stronger effect = higher value
In all, about 1,400 compounds went through this assay and about 380 (27%) were called active. The list shows a part of the results.
Reply with just the number (in %).

[
  {
    "compound": "NNC(=S)NCc1cccnc1",
    "inhibition, %": 24.5
  },
  {
    "compound": "CCCCNC(=O)Nc1nnc(-c2ccc(Cl)cc2)o1",
    "inhibition, %": 44.9
  },
  {
    "compound": "CSC1=N/C(=C\\c2cccnc2)C(=O)N1c1ccccc1",
    "inhibition, %": 30.7
  },
  {
    "compound": "CCCc1ccc(-c2c(C)sc(N)c2C#N)cc1",
    "inhibition, %": 39
  },
  {
    "compound": "CC(C)(C)C(=O)NC1CCN(S(=O)(=O)c2ccc(C(F)(F)F)cc2)CC1",
    "inhibition, %": 18.1
  },
  {
    "compound": "Clc1ccc(CO/N=C2\\CCCc3nonc32)c(Cl)c1",
    "inhibition, %": 44.9
  }
]

# input Give recorded inhibition. Cn1cnc([N+](=O)[O-])c1S(=O)(=O)c1ccc(Cl)cc1
# output 46.9

# input Please report the measured inhibition for CN(C)CCNC=C(C(=O)Nc1ccc(Cl)cc1Cl)C(=O)Nc1ccc(Cl)cc1Cl
# output 38.9

# input Give a short answer stating reported inhibition for CCCNC(=O)c1nnsc1S(=O)(=O)c1ccc(Cl)cc1 .
# output 95

# input Answer with reported inhibition of CNC(=O)c1nnsc1S(=O)c1ccc(Cl)cc1 (stereo not drawn)
# output 88.7

# input Fill in reported inhibition for this entry: O=C(CCSc1nc2cc(Cl)ccc2o1)N1CCOCC1
# output 24.1

# input Item O=C(CN(Cc1ccccc1)S(=O)(=O)c1ccc(S(=O)(=O)N2CCOCC2)cc1)Nc1ccccc1 : provide inhibition
# output 27.6

# input Read the entry CCCNC(=O)c1nnsc1S(=O)c1ccc(Cl)cc1 (stereo not drawn) and write its reported inhibition.
# output 99.3

# input Tell me measured inhibition for COCCNC(=O)CCc1ccc(S(=O)(=O)Nc2ccc(C)cc2)cc1 please.
# output 25.8

# input For the compound c1csc(C2Nc3ccccc3-c3nc4ccccc4n32)c1 (stereo not drawn) , report inhibition.
# output 31.5

# input Give me measured inhibition, please, for this compound: NC(=S)N/N=C/c1coc2c(ccc3ccccc32)c1=O
# output 34.1

# input Retrieve inhibition measured for O=C1C=CC(=O)N1c1ccc(N2CCCCC2)cc1 and print it.
# output 70.8

# input Please report the measured inhibition for O=C(c1nnsc1S(=O)c1ccc(Cl)cc1)N1CCOCC1 (stereo not drawn)
# output 76.7

# input Give the reported inhibition for this compound. O=S(=O)(N1CCCCC1)N1CCN(c2ccc(F)cc2)CC1
# output 29.6

# input Output measured inhibition for this item: Cc1cccc(N/C=C/C(=C(C#N)C#N)N(C)C)c1
# output 30.9

# input Supply recorded inhibition for O=C1/C(=C\c2cccnc2)CN(Cc2ccccc2)C/C1=C\c1cccnc1 here.
# output 22.2

# input Look up and state reported inhibition for CC(=O)NS(=O)(=O)c1ccc(NC(=O)CSc2ccccc2)cc1
# output 8.45

# input Quickly give me recorded inhibition for CCN1CCN(C(=O)N[C@@H](C(=O)N[C@@H]2C(=O)N3[C@@H]2SC(C)(C)[C@@H]3C(=O)O)c2ccccc2)C(=O)C1=O
# output 45.5

meta.source: PubChem BioAssay AID488841
